# Tested on: FOG of α-DG on the cell surfaces
# procedure_summary: Cell-based HTS/HCS assay, IIH6 antibody as probe (EC1.5)
# reported_conditions: concentration of the compound required to enhance the FOG of α-DG by 50% over the controls; cell-based assays in vitro
measured_quantity: Activity (EC1.5)

compound | measured_value
CCC(C(=S)NCc1cccs1)c1ccc(-c2nc3ccccc3s2)cc1 (centres unmarked) | M (EC1.5-20 μM)
CCC(c1nnnn1CCc1cccs1)N1CCN(C2Sc3c(F)cc(N)cc3N2C)CC1 (centres unmarked) | H (EC1.5<5 μM)
CCC(c1nnnn1Cc1ccc([N+](=O)[O-])s1)N1CCN(c2nc3cc(N)cc(F)c3s2)CC1 (centres unmarked) | H (EC1.5<5 μM)
CCC(c1nnnn1Cc1cccs1)N1CCN(c2nc3c(F)cc(N)c(F)c3s2)CC1 (centres unmarked) | H (EC1.5<5 μM)

Look at this compound and give its reported Activity (EC1.5). CCC(c1nnnn1Cc1cccs1)N1CCN(c2nc3c(F)cccc3s2)CC1 (centres unmarked)
H (EC1.5<5 μM)

Entry to check: CCC(c1nnnn1Cc1ccc(F)s1)N1CCN(c2nc3cc(N)cc(F)c3s2)CC1 (centres unmarked)
H (EC1.5<5 μM)

Entry to check: CCC(c1nnnn1Cc1cccs1)N1CCCN(c2nc3cc(N)cc(F)c3s2)CC1 (centres unmarked)
H (EC1.5<5 μM)

Entry to check: CCC(c1nnnn1Cc1cccs1)N1CCN(c2nc3c(F)cc(N)cc3s2)CC1 (centres unmarked)
H (EC1.5<5 μM)

Entry to check: CCC(c1nnnn1Cc1cccs1)N1CCN(c2nc3c(F)c(N)cc(F)c3s2)CC1 (centres unmarked)
H (EC1.5<5 μM)

Entry to check: CCC(c1nnnn1Cc1cccs1)N1CCN(c2nc3ccc(N)c(F)c3s2)CC1 (centres unmarked)
H (EC1.5<5 μM)

Entry to check: CCC(c1nnnn1CCc1ccc(F)s1)N1CCN(c2nc3cc(N)cc(F)c3s2)C(C)C1 (centres unmarked)
H (EC1.5<5 μM)

Entry to check: CCC(c1ccc(-c2nc3ccccc3s2)cc1)c1nnnn1Cc1cccs1 (centres unmarked)
M (EC1.5-20 μM)

Entry to check: CCC(c1nnnn1Cc1cccs1)N1CCN(c2nc3cccnc3s2)CC1 (centres unmarked)
M (EC1.5-20 μM)

Entry to check: CCC(c1nnnn1CCc1cccs1)N1CCN(c2nc3cc(N)cc(F)c3s2)CC1[N+](=O)[O-] (centres unmarked) [Compound 65]
H (EC1.5<5 μM)

Entry to check: CCC(c1nnnn1Cc1cccs1)N1CCN(c2nc3cc(F)ccc3s2)CC1 (centres unmarked)
L (EC1.5 20-50 μM)

Entry to check: CCC(c1nnnn1Cc1cccs1)N1CCN(c2nc3cccc(O)c3s2)CC1 (centres unmarked)
L (EC1.5 20-50 μM)

----------
# System: FOG of α-DG on the cell surfaces
# procedure_summary: Cell-based HTS/HCS assay, IIH6 antibody as probe (EC1.5)
# reported_conditions: concentration of the compound required to enhance the FOG of α-DG by 50% over the controls; cell-based assays in vitro
measured_quantity: Activity (EC1.5)

Below, each entry is followed by its recorded Activity (EC1.5) result.
compound | test_target | measured_quantity | measured_value
CCC(c1nnnn1Cc1cccs1)N1CCN(c2nc3c([N+](=O)[O-])cccc3s2)CC1 (centres unmarked) | FOG of α-DG on the cell surfaces | Activity (EC1.5) | L (EC1.5 20-50 μM)
CCC(c1nnnn1CCc1cccs1)N1CCN(c2nc3cccc(F)c3s2)CC1 (centres unmarked) | FOG of α-DG on the cell surfaces | Activity (EC1.5) | L (EC1.5 20-50 μM)
CCC(c1nnnn1Cc1cccs1)N1CCN(c2nc3cccc(C(=O)O)c3s2)CC1 (centres unmarked) | FOG of α-DG on the cell surfaces | Activity (EC1.5) | L (EC1.5 20-50 μM)
CCC(c1nnnn1Cc1cccs1)N1CCN(c2nc3c(F)cc(F)cc3s2)CC1 (centres unmarked) | FOG of α-DG on the cell surfaces | Activity (EC1.5) | M (EC1.5-20 μM)
CCC(c1nnnn1Cc1ccco1)N1CCN(c2nc3ccccc3s2)CC1 (centres unmarked) | FOG of α-DG on the cell surfaces | Activity (EC1.5) | M (EC1.5-20 μM)
CCC(c1nnnn1Cc1cccs1)N1CCN(c2nc3cc([N+](=O)[O-])cc(F)c3s2)CC1 (centres unmarked) | FOG of α-DG on the cell surfaces | Activity (EC1.5) | L (EC1.5 20-50 μM)

Look at this compound and give its reported Activity (EC1.5). CCC(c1nnnn1Cc1cccs1)N1CCN(c2nc3c(N)cccc3s2)CC1 (centres unmarked)
M (EC1.5-20 μM)
